Values compiled from the RNAGym collection of RNA variant scans (doi:10.7554/elife.80360).

B1: HDV Ribozyme (parent)
chain: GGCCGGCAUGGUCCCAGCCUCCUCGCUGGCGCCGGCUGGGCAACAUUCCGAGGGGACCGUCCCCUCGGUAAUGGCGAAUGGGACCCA

Variants of: B1
Assay: self-cleavage, relative activity (ratio to wild type); higher = more cleavage; co-transcriptional
Labels assigned by self-cleavage range: 0: < 0.2; 1: ≥ 0.2 and < 0.5; 2: ≥ 0.5

Worked set:
Dear colleague, I would appreciate it if you could identify the bin for C61U U65A and reply at your convenience.
2

Also need A42U G68C , thanks.
1

Also need G11C U79A , thanks.
0

Also need C4U C32G , thanks.
0

Also need G25C C61G , thanks.
0

Continuing:
Dear colleague, I would appreciate it if you could identify the bin for C21G C66A and reply at your convenience.
0

Also need A77U C84A , thanks.
1

Also need U9A U27G , thanks.
2

Also need G17C U60A , thanks.
2

Also need G6U C24U , thanks.
0

Also need G39C A43G , thanks.
0

Also need U72A G76U , thanks.
2

Also need U23C G52U , thanks.
2

Also need G6A C14A , thanks.
1

Also need A70C A87C , thanks.
2

Also need U12G U23C , thanks.
2
